Test system: MPNST complex spheroid with HUVEC/MSC, growth, % test/control
Assay: Anticancer human tumor MPNST cell line growth inhibition [Asc];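 note: compounds left on spheroids for seven days before reading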
Conditions: curve of first compound; second compound 0.00316 µM
Please respond with reported pIC50 for every item in the list.
Numbers only, as −log10 of the molar value.

Summary for this compound, O=C(c1ccc(F)c(F)c1Nc1ccc(I)cc1F)N1CC(O)([C@@H]2CCCCN2)C1 + CNC(C)C(=O)NC1CN(S(=O)(=O)c2cccc(S(=O)(=O)N3CCC4CCC(C(=O)NC(c5ccccc5)c5ccccc5)N4C(=O)C(NC(=O)C(C)NC)C3)c2)CCC2CCC(C(=O)NC(c3ccccc3)c3ccccc3)N2C1=O : pIC50 is 6.33

Working through the 2 compounds below one at a time, give pIC50 for each.
1. C=C(F)C(=O)N1CCN(c2nc(OCC3CCCN3C)nc3c2CCN(c2cccc4cccc(Cl)c24)C3)CC1CC#N (configuration not stated) + CNC(C)C(=O)NC1CN(S(=O)(=O)c2cccc(S(=O)(=O)N3CCC4CCC(C(=O)NC(c5ccccc5)c5ccccc5)N4C(=O)C(NC(=O)C(C)NC)C3)c2)CCC2CCC(C(=O)NC(c3ccccc3)c3ccccc3)N2C1=O
2. Cc1nc(N2CCC3(CC2)COC(C)C3N)c(CO)nc1Sc1ccnc(N)c1Cl (configuration not stated) + CNC(C)C(=O)NC1CN(S(=O)(=O)c2cccc(S(=O)(=O)N3CCC4CCC(C(=O)NC(c5ccccc5)c5ccccc5)N4C(=O)C(NC(=O)C(C)NC)C3)c2)CCC2CCC(C(=O)NC(c3ccccc3)c3ccccc3)N2C1=O

[5.43, 6.98]
